- system: recombinant human DPP9 (Homo sapiens)
- Construct: purchased R&D Systems
- Sequence (Q86TI2 whole entry): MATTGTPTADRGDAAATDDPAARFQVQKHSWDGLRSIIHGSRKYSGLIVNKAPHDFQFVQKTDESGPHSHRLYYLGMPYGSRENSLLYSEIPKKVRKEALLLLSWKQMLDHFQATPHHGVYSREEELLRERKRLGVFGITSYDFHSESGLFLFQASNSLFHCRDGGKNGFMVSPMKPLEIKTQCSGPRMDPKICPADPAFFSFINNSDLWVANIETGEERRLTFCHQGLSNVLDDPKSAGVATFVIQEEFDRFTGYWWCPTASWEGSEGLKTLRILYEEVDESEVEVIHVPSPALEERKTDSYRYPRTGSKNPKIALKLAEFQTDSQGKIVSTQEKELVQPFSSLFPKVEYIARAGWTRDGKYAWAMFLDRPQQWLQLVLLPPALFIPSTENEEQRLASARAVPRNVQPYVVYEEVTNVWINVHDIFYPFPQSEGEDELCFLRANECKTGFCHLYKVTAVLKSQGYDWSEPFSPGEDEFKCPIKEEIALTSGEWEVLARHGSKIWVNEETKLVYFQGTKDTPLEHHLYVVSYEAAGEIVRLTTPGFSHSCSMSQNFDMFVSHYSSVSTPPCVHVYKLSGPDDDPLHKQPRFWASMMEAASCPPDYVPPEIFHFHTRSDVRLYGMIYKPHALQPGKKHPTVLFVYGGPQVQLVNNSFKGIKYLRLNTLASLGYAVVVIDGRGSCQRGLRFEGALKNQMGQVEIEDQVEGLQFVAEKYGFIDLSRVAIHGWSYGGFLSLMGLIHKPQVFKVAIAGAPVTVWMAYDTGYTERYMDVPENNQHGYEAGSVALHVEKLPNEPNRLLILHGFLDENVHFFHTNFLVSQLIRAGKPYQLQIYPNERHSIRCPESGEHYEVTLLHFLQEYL
- experiment: DPP9 inhibition, fluorogenic substrate H-Gly-Pro-AMC
- Assay type: biochemical
- applied.conditions: recombinant human DPP9
# IC50 binned as low (below 2000 nM), moderate (2000 nM to below 5000 nM), high (5000 nM or more)

N#C[C@@H]1C[C@H](F)CN1C(=O)CN1CCC(Nc2ccc(C(F)(F)F)c3ncccc23)CC1 low
N#C[C@@H]1CCCN1C(=O)CN1CC[C@H](Nc2c(F)ccc3ncccc23)C1 high
COc1cnc2cccc(N[C@H]3CCN(CC(=O)N4CCC[C@H]4C#N)C3)c2c1 high
N#C[C@@H]1C[C@H](F)CN1C(=O)CN1CC[C@@H](Nc2ccnc3c(Cl)cccc23)C1 low
N#C[C@@H]1C[C@H](F)CN1C(=O)CN1CCC(Nc2ccc(C(=O)Nc3ccccn3)c3ncccc23)CC1 low
CN(C(=O)c1ccc(N[C@H]2CCN(CC(=O)N3C[C@@H](F)C[C@H]3C#N)C2)c2cccnc12)c1ccccc1 low
CN(Cc1ccccc1)C(=O)c1ccc(N[C@H]2CCN(CC(=O)N3C[C@@H](F)C[C@H]3C#N)C2)c2cccnc12 low
COc1cc(N[C@H]2CCN(CC(=O)N3C[C@@H](F)C[C@H]3C#N)C2)c2cccnc2c1 high
N#C[C@@H]1CCCN1C(=O)CN1CC[C@H](Nc2ccc(C(=O)Nc3ccncc3)c3ncccc23)C1 moderate
N#C[C@@H]1C[C@H](F)CN1C(=O)CN1CC[C@H](Nc2ccc(OC(F)(F)F)c3ncccc23)C1 moderate

Request: Which of the defined bands does the recorded IC50 of N#C[C@@H]1C[C@H](F)CN1C(=O)CN1CC[C@H](Nc2ccc(C(F)(F)F)c3ncccc23)C1 sit within?
Response: high

Request: Which category fits this record: N#C[C@@H]1C[C@H](F)CN1C(=O)CN1CCC(Nc2ccc(C(=O)Nc3ccon3)c3ncccc23)CC1
Response: low

Request: Class? Entry: COc1cc2c(NC3CCN(CC(=O)N4C[C@@H](F)C[C@H]4C#N)CC3)cccc2cn1
Response: high

Request: Form field 'band' for CC(=O)Nc1ccc(NC2CCN(CC(=O)N3C[C@@H](F)C[C@H]3C#N)CC2)c2cccnc12
Response: low

Request: Lab log: CN(c1ccc(F)c2ncccc12)[C@H]1CCN(CC(=O)N2C[C@@H](F)C[C@H]2C#N)C1 — assign IC50 category
Response: moderate
